Test system: A549 NSCLC
experiment_summary: NCI tumour cell line growth inhibition, 48 h; in the data active = GI50 below about 0.43 µM; inactive = the rest
Classes used: active, inactive

[[record]]
compound = "CN[C@@H](C)C(=O)N[C@H](C(=O)N1CCC[C@H]1C(=O)Nc1sc(-c2ncco2)nc1-c1ccccc1)C1CCCCC1"
measured_on = "A549 NSCLC"
discrete_label = "inactive"

[[record]]
compound = "COc1cc(N2C(=O)[C@H](O)C2c2ccc(SC)cc2)cc(OC)c1OC (stereo partly specified)"
measured_on = "A549 NSCLC"
discrete_label = "active"

[[record]]
compound = "CCCCCCCCCCCCCCCCCC[n+]1ccc2c(C)c3c(c(C)c2c1)c1cc(O)ccc1n3CC"
measured_on = "A549 NSCLC"
discrete_label = "inactive"

[[record]]
compound = "COc1ccc2cc1Oc1ccc(cc1)C[C@H]1c3c(cc4c(c3Oc3cc5c(cc3OC)CCN(C)[C@@H]5C2)OCO4)CCN1C"
measured_on = "A549 NSCLC"
discrete_label = "inactive"

[[record]]
compound = "COc1cccc(OC(=O)c2ccc(C(F)(F)F)nc2Nc2cc(Cl)ccc2C)c1"
measured_on = "A549 NSCLC"
discrete_label = "inactive"

[[record]]
compound = "CC(C)C[C@H](NC(=O)CNC(=O)c1cc(Cl)ccc1Cl)B1OC(=O)CC(CC(=O)O)(C(=O)O)O1 (stereo partly specified)"
measured_on = "A549 NSCLC"
discrete_label = "active"

[[record]]
compound = "Fc1ccc(/C=N/n2c(-c3ccc(F)c(Cl)c3)nn(CNc3ccccc3C(F)(F)F)c2=S)cc1"
measured_on = "A549 NSCLC"
discrete_label = "inactive"

[[record]]
compound = "Cc1ccc(/C=N\\NC(=O)c2[nH]c3ccc(F)cc3c2-c2ccccc2)cc1"
measured_on = "A549 NSCLC"
discrete_label = "active"

[[record]]
compound = "c1cnn2ncc(-c3ccnc(NCCCN4CCOCC4)n3)c2c1"
measured_on = "A549 NSCLC"
discrete_label = "inactive"

[[record]]
compound = "N#CC1(C(N)=O)C(c2ccc(Cl)cc2)CC(=O)CC1c1ccc(Cl)cc1 (stereo unspecified)"
measured_on = "A549 NSCLC"
discrete_label = "inactive"

[[record]]
compound = "CCN(CC)c1ccc2cc(C(=O)Nc3ccc4[nH]c(C(=O)N5C[C@@H](CCl)c6c5cc(OC(=O)Nc5ccccc5)c5[nH]cc(C)c65)cc4c3)oc2c1"
measured_on = "A549 NSCLC"
discrete_label = "inactive"

[[record]]
compound = "CCCN(CCS(C)(=O)=O)Cc1ccc(-c2ccc3ncnc(Nc4ccc(OCc5cccc(F)c5)c(Cl)c4)c3c2)o1"
measured_on = "A549 NSCLC"
discrete_label = "inactive"

[[record]]
compound = "COc1ccc(-c2[nH]c3ccccc3c2-c2ccc(OC)cc2)cc1"
measured_on = "A549 NSCLC"
discrete_label = "inactive"

[[record]]
compound = "CC1=C2[C@@H](CC1)[C@]1(C)O[C@@](c3ccccc3)(C[C@H]1OC(=O)CO)[C@H]2OC(=O)/C=C/c1ccccc1"
measured_on = "A549 NSCLC"
discrete_label = "inactive"

[[record]]
compound = "C1CCC([PH+](C2CCCCC2)C2CCCCC2[PH+](C2CCCCC2)C2CCCCC2)CC1.[Au].[CH-]1CCCCC1CC1CCCC[N-]1 (stereo unspecified)"
measured_on = "A549 NSCLC"
discrete_label = "active"

[[record]]
compound = "N#Cc1c(N2CCOCC2)nc(=S)[nH]c1-c1ccco1"
measured_on = "A549 NSCLC"
discrete_label = "inactive"

